# drug sensitivity score per entry
# System: HOSE1C
# assay.info: drug sensitivity score (DSS) from 5-point dose-response viability curve (DSS (area-under-curve based score)); higher = more sensitive (stronger growth inhibition or killing); extreme values may be limits of the assay
# condition.set: exposure time: 72 h; concentration range: 5 concentrations over 10,000-fold range

smiles.string: COc1cc2c(NC3CCN(C(C)C)CC3)nc(C3CCCCC3)nc2cc1OCCCN1CCCC1
drug sensitivity score: 0

smiles.string: CN(c1ncccc1CNc1nc(Nc2ccc3c(c2)CC(=O)N3)ncc1C(F)(F)F)S(C)(=O)=O
drug sensitivity score: 4.6

smiles.string: NC(=O)Nc1cc(-c2cccc(F)c2)sc1C(=O)N[C@H]1CCCNC1
drug sensitivity score: 7.4

smiles.string: CN1CCC(CNc2ccc3ncc(-c4cccc(OC(F)(F)F)c4)n3n2)CC1
drug sensitivity score: 8

smiles.string: Cc1nc(C(=O)NCC(=O)O)c(O)c2ccc(Oc3ccccc3)cc12
drug sensitivity score: 0

smiles.string: CC[C@@H]1C(=O)OC[C@@H]1Cc1cncn1C
drug sensitivity score: 0

// query drug sensitivity score value for entry `CN1C(=O)N[C@H](Cc2c[nH]c3c(Cl)cccc23)C1=O`
0

Would you mind telling me what drug sensitivity score value was observed for `O=C(O)C1(C(=O)O)CCC1.[NH2-].[NH2-].[Pt+2]` ?
7.8

Request the reported drug sensitivity score associated with `CC(C)Nc1cc(-c2c[nH]c(C(=O)N[C@H](CO)c3cccc(Cl)c3)c2)c(Cl)cn1`
0

---

Below is a list of entries, each paired with its recorded drug sensitivity score value.
# Test system: CAOV3
# assay.info: drug sensitivity score (DSS) from 5-point dose-response viability curve (DSS (area-under-curve based score)); higher = more sensitive (stronger growth inhibition or killing); extreme values may be limits of the assay
# condition.set: exposure time: 72 h; concentration range: 5 concentrations over 10,000-fold range
Enter the number alone.

For orientation, consider the following solved cases.
compound: Cc1ccc(-n2nc(C(C)(C)C)cc2NC(=O)Nc2ccc(OCCN3CCOCC3)c3ccccc23)cc1 [Doramapimod]
assay.target: CAOV3
drug sensitivity score: 0
--
compound: CN(C)C[C@@H]1CCn2cc(c3ccccc32)C2=C(C(=O)NC2=O)c2cn(c3ccccc23)CCO1 [Ruboxistaurin]
assay.target: CAOV3
drug sensitivity score: 7
--
compound: CC(C)(C#N)c1cc(Cn2cncn2)cc(C(C)(C)C#N)c1 [Anastrozole]
assay.target: CAOV3
drug sensitivity score: 0
--
compound: COc1cc2c(Nc3ccc(Cl)c(Cl)c3F)ncnc2cc1OC[C@@H]1C[C@@H]2CN(C)C[C@@H]2C1 [Tesevatinib]
assay.target: CAOV3
drug sensitivity score: 8.4
--
compound: Nc1nc(F)nc2c1ncn2[C@@H]1O[C@H](CO)[C@@H](O)[C@@H]1O [Fludarabine]
assay.target: CAOV3
drug sensitivity score: 0.2

Quick one: drug sensitivity score of COc1ccc(-c2ccc3c(N4CCOC[C@@H]4C)nc(N4CCOC[C@@H]4C)nc3n2)cc1CO [AZD8055] ?
15.6

Requested read-out: drug sensitivity score. Entry: COC(=O)N[C@@H](C)CNc1nccc(-c2cn(C(C)C)nc2-c2cc(Cl)cc(NS(C)(=O)=O)c2F)n1 [Encorafenib]
0.3

# lookup: drug sensitivity score of CN(C)C1CCN(C(=O)c2ccc(NC(=O)Nc3ccc(-c4nc(N5CCOCC5)nc(N5CCOCC5)n4)cc3)cc2)CC1 [Gedatolisib]
10

---

# Test system: JHOS2
# assay.info: drug sensitivity score (DSS) from 5-point dose-response viability curve (DSS (area-under-curve based score)); higher = more sensitive (stronger growth inhibition or killing); extreme values may be limits of the assay
# condition.set: exposure time: 72 h; concentration range: 5 concentrations over 10,000-fold range
property: drug sensitivity score
// return just the number, without any unit appended

// below: answered compounds
compound: C=CC(=O)Nc1cccc(Nc2nc(Nc3ccc(N4CCN(C(C)=O)CC4)cc3OC)ncc2C(F)(F)F)c1
drug sensitivity score: 2.9
//
compound: FC(F)c1nc2ccccc2n1-c1nc(N2CCOCC2)nc(N2CCOCC2)n1
drug sensitivity score: 4
//
compound: Cc1cc(Nc2cc(N3CCN(C)CC3)nc(/C=C/c3ccccc3)n2)n[nH]1
drug sensitivity score: 5.1
//
compound: O=C1NC(=O)[C@@H](c2cn3c4c(cccc24)CCC3)[C@@H]1c1c[nH]c2ccccc12 [Tivantinib]
drug sensitivity score: 3
//
compound: C[C@@H](Oc1cc(-n2cnc3ccc(CN4CCN(C)CC4)cc32)sc1C(N)=O)c1ccccc1C(F)(F)F
drug sensitivity score: 15.3
//
compound: Cn1cc(-c2cnn3c(N)c(Br)c([C@@H]4CCCNC4)nc23)cn1
drug sensitivity score: 0
//
compound: CO[C@@H](C(=O)N1Cc2[nH]nc(NC(=O)c3ccc(N4CCN(C)CC4)cc3)c2C1)c1ccccc1
drug sensitivity score: 3.1
//
compound: CN(C)c1cc2c(cc1Sc1nc3c(N)nccc3n1CCNCC(C)(C)C)OCO2
drug sensitivity score: 10.8

Find drug sensitivity score (JHOS2) for the entry `O=C(Nc1ccncc1)C(=O)c1cn(Cc2ccc(Cl)cc2)c2ccccc12`
6.8

So what drug sensitivity score did `COCCNCc1ccc(-c2cc3nccc(Oc4ccc(NC(=O)C5(C(=O)Nc6ccc(F)cc6)CC5)cc4F)c3s2)nc1` get with JHOS2?
1.2

Lab request: please report drug sensitivity score under test system JHOS2 for `CONC(=O)c1ccccc1Nc1cc(Nc2cc(C)nn2C(C)C)ncc1Cl`
0.1

Missing value: drug sensitivity score, JHOS2, entry `C[C@@H]1C[C@H]2[C@@H]3CCC4=CC(=O)C=C[C@]4(C)[C@@]3(F)[C@@H](O)C[C@]2(C)[C@@]1(O)C(=O)CO` . Fill in?
0

Request body: readout drug sensitivity score, system JHOS2, query `COc1cccc2c1c(O)c(C(=O)N(C)c1ccc(C(F)(F)F)cc1)c(=O)n2C` . Return the value.
0.6

Under JHOS2: drug sensitivity score value of `CCc1cncnc1N1CCN(Cc2nc3ccc(C(F)(F)F)cc3[nH]2)CC1` ?
0.8

# get_value(readout= drug sensitivity score, system= JHOS2) for O=C(/C=C\n1cnc(-c2cc(C(F)(F)F)cc(C(F)(F)F)c2)n1)NNc1cnccn1 [Selinexor]
13.9

What reported drug sensitivity score corresponds to `OC[C@H]1O[C@@H](n2cnc3c2N=CNC[C@H]3O)C[C@@H]1O` on JHOS2?
0

Form entry - test system: JHOS2; read-out: drug sensitivity score; compound: `O=C(Nc1c[nH]nc1-c1nc2ccc(CN3CCOCC3)cc2[nH]1)NC1CC1`
3.5

---

Known drug sensitivity score of a selection of molecules
# Tested on: HOSE1C
# assay.info: drug sensitivity score (DSS) from 5-point dose-response viability curve (DSS (area-under-curve based score)); higher = more sensitive (stronger growth inhibition or killing); extreme values may be limits of the assay
# condition.set: exposure time: 72 h; concentration range: 5 concentrations over 10,000-fold range
The reply should be a number, written without any unit.

Consider the worked cases shown below.
molecule: COC(=O)c1ccc2c(c1)NC(=O)/C2=C(\Nc1ccc(N(C)C(=O)CN2CCN(C)CC2)cc1)c1ccccc1 [Nintedanib]
observed.result: 3.1

molecule: Cc1nc(NC(=O)N2CCC[C@H]2C(N)=O)sc1-c1ccnc(C(C)(C)C(F)(F)F)c1 [Alpelisib]
observed.result: 2.2

molecule: C[C@H]1CNCCCN1S(=O)(=O)c1cccc2cncc(F)c12 [Ripasudil]
observed.result: 2

molecule: Cc1nc(Nc2n[nH]c3c2CN(C(=O)N[C@H](CN(C)C)c2ccccc2)C3(C)C)c2sccc2n1
observed.result: 20.6

molecule: Cc1ccc(F)c(NC(=O)Nc2ccc(-c3cccc4[nH]nc(N)c34)cc2)c1 [Linifanib]
observed.result: 0

With those in mind, consider the next molecule.
I am curious: what drug sensitivity score value has been reported for `CC[C@@H]1[C@H](F)C(=O)N[C@@H]1COc1nccc2cc(C(N)=O)c(OC)cc12` ?
0

---

# Test system: OVCAR4
# assay.info: drug sensitivity score (DSS) from 5-point dose-response viability curve (DSS (area-under-curve based score)); higher = more sensitive (stronger growth inhibition or killing); extreme values may be limits of the assay
# condition.set: exposure time: 72 h; concentration range: 5 concentrations over 10,000-fold range
property: drug sensitivity score
// response body must contain only the number

smiles.string: CC(=O)OC[C@H]1O[C@@H]([S-])[C@H](OC(C)=O)[C@@H](OC(C)=O)[C@@H]1OC(C)=O.CCP(CC)CC.[Au+]
assay.target: OVCAR4
drug sensitivity score: 1.7

Turning now to a further compound:
Kindly state the measured drug sensitivity score obtained for `Cc1c2oc3c(C)ccc(C(=O)N[C@@H]4C(=O)N[C@H](C(C)C)C(=O)N5CCC[C@H]5C(=O)N(C)CC(=O)N(C)[C@@H](C(C)C)C(=O)O[C@@H]4C)c3nc-2c(C(=O)N[C@@H]2C(=O)N[C@H](C(C)C)C(=O)N3CCC[C@H]3C(=O)N(C)CC(=O)N(C)[C@@H](C(C)C)C(=O)O[C@@H]2C)c(N)c1=O` with OVCAR4.
17.5
